// data source = paper PMC6100259

- RUN DESCRIPTION: Aqueous solubility in Tris/HCl buffer
- Assay type: physicochemical
- EXPERIMENTAL CONTEXT: pH 7.4 at 25 °C
MEASURED PARAMETER: solubility (µM)
Give just the numeric value; µM need not be written.

Quick check: solubility of COc1ccc2c(c1)/C(=N/Nc1ccc(C(C)C)cc1)C(=O)N2C1CC1 [Compound 28] ?
21

---

This listing pairs compounds with measured IC50.
- TARGET SYSTEM: Aβ40 peptide (Homo sapiens)
- Construct: we preferred using Aβ40 peptide
- Sequence (P05067 672-711 limits assumed): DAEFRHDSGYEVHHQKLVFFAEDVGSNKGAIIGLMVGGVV
- RUN DESCRIPTION: Inhibition of Aβ40 aggregation, ThT fluorescence-based method
- Type: biochemical
- EXPERIMENTAL CONTEXT: Aβ40 aggregation inhibition; read-out: pIC50, Aβ antiaggregating potency (converted)

Quick check: IC50 of COc1ccc2c(c1)/C(=N/Nc1ccc(C(C)C)cc1)C(=O)N2 ?
0.398 µM

Quick check: IC50 of COc1ccc2c(c1)/C(=N/Nc1cccc3ccccc13)C(=O)N2 ?
28.2 µM

Quick check: IC50 of COc1ccc2c(c1)/C(=N\N=C/c1cccc(Cl)c1)C(=O)N2 ?
11 µM

Quick check: IC50 of COc1ccc2c(c1)/C(=N/N(C)c1ccc(C(C)C)cc1)C(=O)N2C ?
11 µM

Quick check: IC50 of COc1ccc2c(c1)/C(=N/Nc1nc(-c3cccc(Br)c3)cs1)C(=O)N2 ?
39.8 µM
